Entry source: patent US20260001849A1

Form field: IC50 (one value per entry).
- system_under_test: hERG channel (Homo sapiens)
- Construct: host or cells: CHO cells
- Sequence (Q12809 whole entry): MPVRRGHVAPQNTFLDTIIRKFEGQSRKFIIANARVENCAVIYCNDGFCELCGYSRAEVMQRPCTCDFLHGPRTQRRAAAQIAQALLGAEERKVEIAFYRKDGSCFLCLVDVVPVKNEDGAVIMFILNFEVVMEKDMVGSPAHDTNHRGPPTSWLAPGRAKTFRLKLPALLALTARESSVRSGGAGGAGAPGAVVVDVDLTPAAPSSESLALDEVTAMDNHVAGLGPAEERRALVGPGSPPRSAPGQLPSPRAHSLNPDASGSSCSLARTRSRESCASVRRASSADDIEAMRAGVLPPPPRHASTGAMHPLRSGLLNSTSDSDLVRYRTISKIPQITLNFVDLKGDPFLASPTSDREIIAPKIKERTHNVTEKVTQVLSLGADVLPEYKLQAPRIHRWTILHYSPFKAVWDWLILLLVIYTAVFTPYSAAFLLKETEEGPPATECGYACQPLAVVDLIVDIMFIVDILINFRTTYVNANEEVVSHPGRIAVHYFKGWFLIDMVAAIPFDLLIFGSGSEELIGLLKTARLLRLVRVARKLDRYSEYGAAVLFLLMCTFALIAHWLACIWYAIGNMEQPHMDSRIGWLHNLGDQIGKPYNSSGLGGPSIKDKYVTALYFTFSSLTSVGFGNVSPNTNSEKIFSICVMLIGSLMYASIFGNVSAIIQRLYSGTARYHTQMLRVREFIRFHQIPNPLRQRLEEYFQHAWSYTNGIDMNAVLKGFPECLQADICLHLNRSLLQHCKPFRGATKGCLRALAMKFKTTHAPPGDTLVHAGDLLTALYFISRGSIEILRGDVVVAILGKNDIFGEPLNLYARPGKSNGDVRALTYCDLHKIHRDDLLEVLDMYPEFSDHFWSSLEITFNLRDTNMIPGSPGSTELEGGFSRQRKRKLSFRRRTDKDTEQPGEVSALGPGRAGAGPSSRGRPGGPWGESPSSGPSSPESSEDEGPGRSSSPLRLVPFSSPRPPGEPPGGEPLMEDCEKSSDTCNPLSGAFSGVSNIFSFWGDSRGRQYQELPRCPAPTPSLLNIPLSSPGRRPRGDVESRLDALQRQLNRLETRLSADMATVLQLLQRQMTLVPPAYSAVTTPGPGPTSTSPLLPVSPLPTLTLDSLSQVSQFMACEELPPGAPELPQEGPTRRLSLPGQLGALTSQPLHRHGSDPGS
- method_summary: hERG channel inhibitory activity, whole-cell patch clamp (auto-patch clamp system)
- Assay type: cell-based
- study_conditions: read-out: hERG IC50

Please review the entries below; each comes with its answer.
Exercise: Quick one: IC50 of C[C@H]1CN(C(=O)CNC(=O)/C=C/c2ccc(C(F)(F)F)cc2F)[C@@H](c2ccccc2)CN1CCCC(=O)O ?
Key: > 30 µM

Exercise: Quick one: IC50 of CC(C(=O)O)c1ccc2c(c1)CCN(C(=O)CNC(=O)/C=C/c1ccc(C(F)(F)F)cc1)C2 (racemic) [I-171] ?
Key: > 30 µM

Exercise: Quick one: IC50 of C[C@@H]1CN(C(=O)CNC(=O)/C=C/c2ccc(C(F)(F)F)cc2F)[C@@H](C)CN1CCCC(=O)O ?
Key: > 30 µM

Field: next compound
Exercise: Quick one: IC50 of C[C@@H]1CN(C(=O)CNC(=O)/C=C/c2ccc(C(F)(F)F)cc2F)[C@@H](c2cccc(C3CC3)c2)CN1CCC(=O)O ?
Key: 15.8 µM

====

- system_under_test: Human BOAT1 (Homo sapiens)
- Construct: expressed in transfected cells
- method_summary: hBOAT1 inhibitory test (phenylalanine uptake)
- Type: cell-based
- study_conditions: Human BOAT1 stable expression CHO cells; [3H]-L-phenylalanine uptake, phenylalanine 0.25 mM; radioactivity after 100 to 200 min; read-out: hB0AT1 IC50
Form field: IC50 (one value per entry).
Report only the number, with the unit nM understood.

Exercise: Quick one: IC50 of Cc1cc2c(cc1CC(=O)O)CCN(C(=O)CNC(=O)/C=C/c1ccc(C(F)(F)F)cc1)C2 ?
Key: 124

Exercise: Quick one: IC50 of CNC(=O)Cc1nc2c(s1)CCN(C(=O)CNC(=O)/C=C/c1ccc(C(F)(F)F)cc1F)C2 ?
Key: 77

Further cases:
Exercise: Quick one: IC50 of CC(C)(C)OC(=O)C1CCN(c2ccc3c(c2)CCN(C(=O)CNC(=O)/C=C/c2ccc(C(F)(F)F)cc2)C3)C1 (stereo not shown) ?
Key: 332

Exercise: Quick one: IC50 of O=C(O)Cc1ccc2c(c1)CCN(C(=O)CNC(=O)/C=C/c1ccc(S(F)(F)(F)(F)F)cc1)C2 ?
Key: 102

Exercise: Quick one: IC50 of COC(=O)CNc1ccc2c(c1)CCN(C(=O)CNC(=O)/C=C/c1ccc(C(F)(F)F)cc1)C2 ?
Key: 81

Exercise: Quick one: IC50 of O=C(O)Cc1ccc2c(c1)CCN(C(=O)CNC(=O)/C=C/c1ccc(C(F)(F)F)cc1)C2 ?
Key: 85

Exercise: Quick one: IC50 of O=C(O)Cc1cc(F)c2c(c1)CCN(C(=O)CNC(=O)/C=C/c1ccc(C(F)(F)F)cc1)C2 ?
Key: 151

Exercise: Quick one: IC50 of O=C(O)CCc1nn2c(c1Br)CN(C(=O)CNC(=O)/C=C/c1ccc(S(F)(F)(F)(F)F)cc1)CC2 ?
Key: 146

Exercise: Quick one: IC50 of Cc1cc(CC(=O)O)cc2c1CN(C(=O)CNC(=O)/C=C/c1ccc(C(F)(F)F)cc1)CC2 ?
Key: 132

Exercise: Quick one: IC50 of N#Cc1c(CC(=O)O)ccc2c1CCN(C(=O)CNC(=O)/C=C/c1ccc(C(F)(F)F)cc1F)C2 ?
Key: 57

====

- system_under_test: Human BOAT1 (Homo sapiens, UniProt Q695T7)
- Construct: expressed in transfected cells
- method_summary: hBOAT1 inhibitory test (phenylalanine uptake)
- Format: cell-based
- study_conditions: Human BOAT1 stable expression CHO cells; [3H]-L-phenylalanine uptake, phenylalanine 0.25 mM; radioactivity after 100 to 200 min; read-out: hB0AT1 IC50
- Method: A test compound dissolved in dimethyl sulfoxide (DMSO) was added to a 96 well plate for solid phase radioactivity measurement containing a scintillator at the bottom of the well (final concentration of DMSO 0.5%). DMSO alone as a control and DMSO containing N-(4-bromophenyl)-3,5-dichloro-2-hydroxybenzamide (final concentration […]) for the measurement of BOAT1 non-specific uptake were similarly added at 0.5 μL per well. […]
experimental_endpoint: IC50 (nM)
Report only the number, with the unit nM understood.

Exercise: Quick one: IC50 of C[C@@H]1CN(C(=O)CNC(=O)/C=C/c2ccc(C(F)(F)F)cc2F)[C@@H](C)CN1CCCC(=O)O ?
Key: 2400

Further cases:
Exercise: Quick one: IC50 of O=C(O)Cc1nc2c(s1)CN(C(=O)CNC(=O)/C=C/c1ccc(C(F)(F)F)cc1)CC2 ?
Key: 149

Exercise: Quick one: IC50 of CCC(F)(F)c1ccc(/C=C/C(=O)NCC(=O)N2CCc3cc(CC(=O)O)ccc3C2)cc1 ?
Key: 667

Exercise: Quick one: IC50 of CC1CN(C(=O)CNC(=O)/C=C/c2ccc(C(F)(F)F)cc2F)CCN1CCCC(=O)O (stereo not shown) ?
Key: 234

====

Form field: pIC50 (one value per entry).
- system_under_test: Human BOAT1 (Homo sapiens)
- Construct: expressed in transfected cells
- method_summary: hBOAT1 inhibitory test (phenylalanine uptake)
- Assay type: cell-based
- study_conditions: Human BOAT1 stable expression CHO cells; phenylalanine uptake, phenylalanine 0.25 mM; read-out: hB0AT1 IC50
The scale used: pIC50 is minus the common logarithm of the concentration in molar units.

Exercise: Quick one: pIC50 of C[C@@H]1CN(C(=O)CNC(=O)/C=C/c2ccc(C(F)(F)F)cc2F)[C@@H](c2cccc(F)c2)CN1CCCC(=O)O ?
Key: 7.21

Exercise: Quick one: pIC50 of O=C(/C=C/c1ccc(C(F)(F)F)cc1)NCC(=O)N1CCc2cc([C@@H]3C[C@H]3C(=O)O)ccc2C1 (single isomer, unassigned) [I-288] ?
Key: 6.82

Exercise: Quick one: pIC50 of O=C(/C=C/c1ccc(C(F)(F)F)cc1F)NCC(=O)N1CCCC(N2CC[C@@H](C(=O)O)C2)C1 (stereo partly drawn) ?
Key: 5.95

Exercise: Quick one: pIC50 of NC(=O)Cc1ccc2c(c1)CCN(C(=O)CNC(=O)/C=C/c1ccc(C(F)(F)F)cc1)C2 ?
Key: 7.66

====

- system_under_test: Human BOAT1 (Homo sapiens, UniProt Q695T7)
- Construct: expressed in transfected cells
- method_summary: hBOAT1 inhibitory test (phenylalanine uptake)
- Format: cell-based
- study_conditions: Human BOAT1 stable expression CHO cells; phenylalanine uptake, phenylalanine 0.25 mM; read-out: hB0AT1 IC50
- Experimental: A test compound dissolved in dimethyl sulfoxide (DMSO) was added to a 96 well plate for solid phase radioactivity measurement containing a scintillator at the bottom of the well (final concentration of DMSO 0.5%). DMSO alone as a control and DMSO containing N-(4-bromophenyl)-3,5-dichloro-2-hydroxybenzamide (final concentration […]) for the measurement of BOAT1 non-specific uptake were similarly added at 0.5 μL per well. […]
experimental_endpoint: IC50 (nM)
Report only the number, with the unit nM understood.

Please review the entries below; each comes with its answer.
Exercise: Quick one: IC50 of O=C(/C=C/c1ccc(C(F)(F)F)cc1)NCC(=O)N1CCc2cc([C@@H]3C[C@H]3C(=O)O)ccc2C1 (single isomer, unassigned) [I-289] ?
Key: 87

Exercise: Quick one: IC50 of O=C(O)CCCN1CCN(C(=O)CNC(=O)/C=C/c2ccc(C(F)(F)F)cc2F)C(c2ccc(Cl)cc2)C1 (single isomer, unassigned) [I-295] ?
Key: 51

Exercise: Quick one: IC50 of CNC(=O)Cn1ncc2c1CN(C(=O)CNC(=O)/C=C/c1ccc(C(F)(F)F)cc1)CC2 ?
Key: 256

Exercise: Quick one: IC50 of O=C(O)CCCN1CCN(C(=O)CNC(=O)/C=C/c2ccc(C(F)(F)F)cc2F)C(c2ccc(Cl)c(F)c2)C1 (centres unmarked) ?
Key: 108

Exercise: Quick one: IC50 of CNC(=O)Cc1cc(CC(=O)O)cc2c1CN(C(=O)CNC(=O)/C=C/c1ccc(C(F)(F)F)cc1F)CC2 ?
Key: 661

Further cases:
Exercise: Quick one: IC50 of O=C(O)CCCN1CCN(C(=O)CNC(=O)/C=C/c2ccc(C(F)(F)F)cc2F)C(C2CCCCC2)C1 (centres unmarked) ?
Key: 69

Exercise: Quick one: IC50 of O=C(O)CCCN1C[C@H](c2ccccc2)N(C(=O)CNC(=O)/C=C/c2ccc(C(F)(F)F)cc2F)CC12CC2 ?
Key: 1680

Exercise: Quick one: IC50 of O=C(O)CCCN1CCN(C(=O)CNC(=O)/C=C/c2ccc(C(F)(F)F)cc2F)C(c2cccnc2)C1 (centres unmarked) ?
Key: 1720

====

- system_under_test: Human BOAT1 (Homo sapiens, UniProt Q695T7)
- Construct: expressed in transfected cells
- Sequence (Q695T7 1-634): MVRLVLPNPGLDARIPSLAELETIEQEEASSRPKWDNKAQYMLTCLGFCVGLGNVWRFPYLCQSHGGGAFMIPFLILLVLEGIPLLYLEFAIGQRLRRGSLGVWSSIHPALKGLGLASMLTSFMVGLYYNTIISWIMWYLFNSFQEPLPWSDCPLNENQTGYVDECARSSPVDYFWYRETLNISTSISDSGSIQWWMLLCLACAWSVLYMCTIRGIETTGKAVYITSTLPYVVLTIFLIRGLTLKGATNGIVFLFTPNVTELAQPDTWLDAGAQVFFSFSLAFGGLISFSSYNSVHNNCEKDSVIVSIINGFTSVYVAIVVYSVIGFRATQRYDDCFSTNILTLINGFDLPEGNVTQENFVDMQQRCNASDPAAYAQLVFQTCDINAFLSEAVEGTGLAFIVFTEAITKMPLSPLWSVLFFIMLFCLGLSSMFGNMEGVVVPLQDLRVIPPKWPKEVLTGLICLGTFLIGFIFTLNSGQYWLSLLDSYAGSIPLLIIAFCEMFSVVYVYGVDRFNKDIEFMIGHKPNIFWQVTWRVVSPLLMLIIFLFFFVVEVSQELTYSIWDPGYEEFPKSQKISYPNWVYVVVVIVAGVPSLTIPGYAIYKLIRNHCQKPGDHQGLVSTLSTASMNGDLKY
- method_summary: hBOAT1 inhibitory test (phenylalanine uptake)
- Type: cell-based
- study_conditions: Human BOAT1 stable expression CHO cells; [3H]-L-phenylalanine uptake, phenylalanine 0.25 mM; radioactivity after 100 to 200 min; read-out: hB0AT1 IC50
experimental_endpoint: IC50
Could you write the number and then its unit?

Please review the entries below; each comes with its answer.
Exercise: Quick one: IC50 of COC(=O)CCc1cc2c(s1)CN(C(=O)CNC(=O)/C=C/c1ccc(C(F)(F)F)cc1)CC2 [I-13] ?
Key: 0.123 µM

Exercise: Quick one: IC50 of O=C(O)COc1cc(Br)c2c(c1)CCN(C(=O)CNC(=O)/C=C/c1ccc(C(F)(F)F)cc1)C2 [I-181] ?
Key: 0.138 µM

Exercise: Quick one: IC50 of O=C(O)Cc1ccc2c(c1)C(O)CN(C(=O)CNC(=O)/C=C/c1ccc(C(F)(F)F)cc1)C2 (stereo not shown) [I-213] ?
Key: 0.156 µM

Further cases:
Exercise: Quick one: IC50 of O=C(O)COc1cccc2c1CCN2C(=O)CNC(=O)/C=C/c1ccc(C(F)(F)F)cc1 [I-194] ?
Key: 0.074 µM

Exercise: Quick one: IC50 of N#Cc1cc(CC(=O)O)cc2c1CN(C(=O)CNC(=O)/C=C/c1ccc(C(F)(F)F)cc1F)CC2 [I-147] ?
Key: 0.1 µM

Exercise: Quick one: IC50 of O=C(O)Cc1cc2c(cn1)CN(C(=O)CNC(=O)/C=C/c1ccc(C(F)(F)F)cc1)CC2 [I-167] ?
Key: 0.106 µM

Exercise: Quick one: IC50 of N#Cc1c(CC(=O)O)ccc2c1CCN(C(=O)CNC(=O)/C=C/c1ccc(S(F)(F)(F)(F)F)cc1)C2 [I-152] ?
Key: 0.096 µM

Exercise: Quick one: IC50 of O=C(O)COc1ccc2c(c1)CCN(C(=O)CNC(=O)/C=C/c1ccc(C(F)(F)F)cc1)C2 [I-191] ?
Key: 0.104 µM

Exercise: Quick one: IC50 of N#Cc1cc(CC(=O)O)cc2c1CN(C(=O)CNC(=O)/C=C/c1ccc(I)cc1F)CC2 [I-157] ?
Key: 0.102 µM
